# ASSAY DETAILS: Quantitative High-Throughput drug screen in 47 multiple myeloma cell lines against the NCATS MIPE library collection: KMS11_JCRBsus cell viability assay (AID 1919873); note: nearly all actives have a fitted effect of over 50% in size
# PROTOCOL CONDITIONS: KMS11 myeloma viability, CellTiter-Glo ATP luminescence, 48 h; series mostly up to 45.8 µM
Results filed as inconclusive are left out. Active and inactive are the calls of the source. Calls come from the whole dose curve; as a rule, active = well fitted cell-killing curve with a large enough effect; inconclusive = small, poorly fitted or top-dose-only effect, or effect the other way; inactive = no such curve, though single readings can be large or run the other way.
The reply should be one of these categories: label 1 = active, label 0 = inactive

These solved cases illustrate the format of a correct answer.
[
  {
    "SMILES REPR": "O=C(C=Cc1ccc(/C=C/C(=O)Nc2ccc(C3=NCCN3)cc2)cc1)Nc1ccc(C2=NCCN2)cc1",
    "ANSWER LABEL": "label 0"
  },
  {
    "SMILES REPR": "Cc1cc2c(C(C)C)c(O)c(O)c(C=O)c2c(O)c1-c1c(C)cc2c(C(C)C)c(O)c(O)c(C=O)c2c1O",
    "ANSWER LABEL": "label 1"
  },
  {
    "SMILES REPR": "CCCS(=O)(=O)Nc1ccc(F)c(C(=O)c2c[nH]c3ncc(Cl)cc23)c1F",
    "ANSWER LABEL": "label 1"
  },
  {
    "SMILES REPR": "Cc1[nH]c(=O)c(C#N)cc1-c1ccc2nccn2c1",
    "ANSWER LABEL": "label 0"
  },
  {
    "SMILES REPR": "CCOc1cc(N2CCC(O)CC2)ccc1Nc1ncc2c(n1)N(C)c1ccccc1C(=O)N2C",
    "ANSWER LABEL": "label 1"
  },
  {
    "SMILES REPR": "C1COC(NC(C2CC2)C2CC2)=N1",
    "ANSWER LABEL": "label 0"
  },
  {
    "SMILES REPR": "CC(C)OC(=O)C1=CN(C(=O)c2ccc(F)c(F)c2)CC(C)(C)c2c1[nH]c1ccccc21",
    "ANSWER LABEL": "label 0"
  },
  {
    "SMILES REPR": "Cc1cn[nH]c1",
    "ANSWER LABEL": "label 1"
  },
  {
    "SMILES REPR": "NC(=O)c1ccc(-c2nc(-c3ccc4c(c3)OCCO4)c(-c3ccccn3)[nH]2)cc1",
    "ANSWER LABEL": "label 0"
  },
  {
    "SMILES REPR": "COc1ccc(-c2c(-c3ccc(O)cc3O)n[nH]c2C)cc1",
    "ANSWER LABEL": "label 1"
  }
]

Let us examine a further case.
Ask: Query: recorded result category for Cc1[nH]c(=O)c(C#N)cc1-c1ccncc1 in this test
Result: label 0
